Record form. Attribute: Ki. Fill in for each entry.
# measuredOn: Delta-type opioid receptor (Homo sapiens)
# Sequence (P41143 whole entry): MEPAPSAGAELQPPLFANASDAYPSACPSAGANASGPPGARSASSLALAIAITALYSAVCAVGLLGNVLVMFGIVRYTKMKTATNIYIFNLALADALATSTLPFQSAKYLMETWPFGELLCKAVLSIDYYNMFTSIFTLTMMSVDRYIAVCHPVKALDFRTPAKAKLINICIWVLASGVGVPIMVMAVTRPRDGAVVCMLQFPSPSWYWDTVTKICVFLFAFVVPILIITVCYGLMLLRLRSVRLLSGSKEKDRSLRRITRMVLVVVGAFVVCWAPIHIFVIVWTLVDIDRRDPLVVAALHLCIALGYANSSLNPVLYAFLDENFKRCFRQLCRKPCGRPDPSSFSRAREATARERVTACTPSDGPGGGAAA
# assayRemarks: Displacement of [3H]deltorphin-2 from recombinant human delta opioid receptor expressed in CHO cell membranes after 120 mins by liquid scintillation counter analysis
Where a SMILES comes first, the peptide text is derived from it. Bridges are numbered along the chain shown (N, C = ends). [ ]: non-standard residue; d: D form.
Give just the number in nM; leave the unit off.

Enquiry: Quick one: Ki for NC(=O)[C@@H]1CC(=O)NCCCC[C@@H](NC(=O)[C@@H](N)Cc2ccc(O)cc2)C(=O)N[C@@H](Cc2ccccc2)C(=O)N2CCCC[C@H]2C(=O)N1 ?
Return: 49.6

Enquiry: Quick one: Ki for NC(=O)[C@@H]1CC(=O)NCCCC[C@@H](NC(=O)[C@@H](N)Cc2ccc(O)cc2)C(=O)N[C@@H](Cc2ccccc2)C(=O)N2CCC(CC2)C(=O)N1 ?
Return: 76.7

Enquiry: Quick one: Ki for NC(=O)[C@@H]1CC(=O)NCCCC[C@@H](NC(=O)[C@@H](N)Cc2ccc(O)cc2)C(=O)N[C@@H](Cc2ccccc2)C(=O)N2CCC[C@H](C2)C(=O)N1 ?
Return: 67

Enquiry: Quick one: Ki for NC(=O)[C@@H]1CC(=O)NCCCC[C@@H](NC(=O)[C@@H](N)Cc2ccc(O)cc2)C(=O)N[C@@H](Cc2ccccc2)C(=O)N[C@@H](Cc2ccccc2)C(=O)N1 (H-Y[dK]FFD-NH2; lactam 2-5) ?
Return: 279

Enquiry: Quick one: Ki for NC(=O)[C@@H]1CC(=O)NCCCC[C@@H](NC(=O)[C@@H](N)Cc2ccc(O)cc2)C(=O)N[C@@H](Cc2ccccc2)C(=O)N2CCC[C@H]2C(=O)N1 ?
Return: 85.5

====

Record form. Attribute: pKi. Fill in for each entry.
# measuredOn: Kappa-type opioid receptor (Homo sapiens)
# Sequence (P41145 whole entry): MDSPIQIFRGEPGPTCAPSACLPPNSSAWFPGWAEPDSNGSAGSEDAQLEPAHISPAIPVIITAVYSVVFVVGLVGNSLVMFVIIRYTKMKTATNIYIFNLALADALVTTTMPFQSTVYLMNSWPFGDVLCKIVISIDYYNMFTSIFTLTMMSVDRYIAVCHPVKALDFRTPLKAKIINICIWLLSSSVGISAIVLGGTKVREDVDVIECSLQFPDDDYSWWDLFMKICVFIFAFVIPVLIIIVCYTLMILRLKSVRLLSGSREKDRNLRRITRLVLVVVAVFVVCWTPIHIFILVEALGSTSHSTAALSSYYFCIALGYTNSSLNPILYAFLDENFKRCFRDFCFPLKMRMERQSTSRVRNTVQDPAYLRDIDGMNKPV
# assayRemarks: Displacement of [3H]U-69593 from recombinant human kappa opioid receptor expressed in CHO cell membranes after 120 mins by liquid scintillation counter analysis
Where a SMILES comes first, the peptide text is derived from it. Bridges are numbered along the chain shown (N, C = ends). [ ]: non-standard residue; d: D form.
Formally, pKi is defined as -log10 of the concentration c, with c in mol/L.

Enquiry: Quick one: pKi for NC(=O)[C@@H]1CC(=O)NCCCC[C@@H](NC(=O)[C@@H](N)Cc2ccc(O)cc2)C(=O)N[C@@H](Cc2ccccc2)C(=O)N2CCCC[C@H]2C(=O)N1 ?
Return: 5.17

Enquiry: Quick one: pKi for NC(=O)[C@@H]1CC(=O)NCCCC[C@@H](NC(=O)[C@@H](N)Cc2ccc(O)cc2)C(=O)N[C@@H](Cc2ccccc2)C(=O)N2CCC(CC2)C(=O)N1 ?
Return: 5.26

Enquiry: Quick one: pKi for NC(=O)[C@@H]1CC(=O)NCCCC[C@@H](NC(=O)[C@@H](N)Cc2ccc(O)cc2)C(=O)N[C@@H](Cc2ccccc2)C(=O)N2CCC[C@H]2C(=O)N1 ?
Return: 6.05

Enquiry: Quick one: pKi for NC(=O)[C@@H]1CC(=O)NCCCC[C@@H](NC(=O)[C@@H](N)Cc2ccc(O)cc2)C(=O)N[C@@H](Cc2ccccc2)C(=O)N[C@@H](Cc2ccccc2)C(=O)N1 (H-Y[dK]FFD-NH2; lactam 2-5) ?
Return: 8.63

Enquiry: Quick one: pKi for NC(=O)[C@@H]1CC(=O)NCCCC[C@@H](NC(=O)[C@@H](N)Cc2ccc(O)cc2)C(=O)N[C@@H](Cc2ccccc2)C(=O)N2CCC[C@H](C2)C(=O)N1 ?
Return: 5.33

====

# measuredOn: Mu-type opioid receptor (Homo sapiens)
# Sequence (P35372 whole entry): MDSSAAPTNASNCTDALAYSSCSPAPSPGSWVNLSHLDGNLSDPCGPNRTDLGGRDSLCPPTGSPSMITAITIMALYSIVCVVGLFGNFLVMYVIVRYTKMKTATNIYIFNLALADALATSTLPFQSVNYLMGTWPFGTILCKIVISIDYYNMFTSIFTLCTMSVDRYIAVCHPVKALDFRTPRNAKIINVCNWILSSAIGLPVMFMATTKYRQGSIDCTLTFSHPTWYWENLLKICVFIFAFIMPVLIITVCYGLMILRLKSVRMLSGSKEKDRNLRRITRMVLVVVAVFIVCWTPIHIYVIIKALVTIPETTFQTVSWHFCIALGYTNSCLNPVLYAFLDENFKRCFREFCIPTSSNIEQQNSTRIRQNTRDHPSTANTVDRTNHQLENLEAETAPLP
# assayRemarks: Displacement of [3H]DAMGO from recombinant human mu opioid receptor expressed in CHO cell membranes after 120 mins by liquid scintillation counter analysis
Where a SMILES comes first, the peptide text is derived from it. Bridges are numbered along the chain shown (N, C = ends). [ ]: non-standard residue; d: D form.
measuredProperty: Ki (pM)
Give just the number in pM; leave the unit off.

Enquiry: Quick one: Ki for NC(=O)[C@@H]1CC(=O)NCCCC[C@@H](NC(=O)[C@@H](N)Cc2ccc(O)cc2)C(=O)N[C@@H](Cc2ccccc2)C(=O)N2CCCC[C@H]2C(=O)N1 ?
Return: 3160

Enquiry: Quick one: Ki for NC(=O)[C@@H]1CC(=O)NCCCC[C@@H](NC(=O)[C@@H](N)Cc2ccc(O)cc2)C(=O)N[C@@H](Cc2ccccc2)C(=O)N2CCC[C@H](C2)C(=O)N1 ?
Return: 900

Enquiry: Quick one: Ki for NC(=O)[C@@H]1CC(=O)NCCCC[C@@H](NC(=O)[C@@H](N)Cc2ccc(O)cc2)C(=O)N[C@@H](Cc2ccccc2)C(=O)N2CCC[C@H]2C(=O)N1 ?
Return: 460

Enquiry: Quick one: Ki for NC(=O)[C@@H]1CC(=O)NCCCC[C@@H](NC(=O)[C@@H](N)Cc2ccc(O)cc2)C(=O)N[C@@H](Cc2ccccc2)C(=O)N2CCC(CC2)C(=O)N1 ?
Return: 1150

Enquiry: Quick one: Ki for NC(=O)[C@@H]1CC(=O)NCCCC[C@@H](NC(=O)[C@@H](N)Cc2ccc(O)cc2)C(=O)N[C@@H](Cc2ccccc2)C(=O)N[C@@H](Cc2ccccc2)C(=O)N1 (H-Y[dK]FFD-NH2; lactam 2-5) ?
Return: 560
